Assayed system: T1, hNPR1-mFc:hBNP complex (human, UniProt P16860 103-134)
T1 construct: also called human NPR1 complexed to BNP
Protocol summary: SPR, mAb captured, 37C
Measured t½ by item
Response body: numeric value in h, unit text excluded.

Example results:
* mAb22033 (antibody, human IgG4, V domains shown) VH: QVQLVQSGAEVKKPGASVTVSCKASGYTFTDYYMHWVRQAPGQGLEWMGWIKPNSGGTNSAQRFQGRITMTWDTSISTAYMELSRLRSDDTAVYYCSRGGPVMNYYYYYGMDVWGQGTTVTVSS VL: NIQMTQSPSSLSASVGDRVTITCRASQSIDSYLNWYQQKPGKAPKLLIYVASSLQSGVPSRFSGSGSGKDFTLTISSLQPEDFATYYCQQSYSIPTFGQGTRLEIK | 2
* mAb22809 (antibody, human IgG4, V domains shown) VH: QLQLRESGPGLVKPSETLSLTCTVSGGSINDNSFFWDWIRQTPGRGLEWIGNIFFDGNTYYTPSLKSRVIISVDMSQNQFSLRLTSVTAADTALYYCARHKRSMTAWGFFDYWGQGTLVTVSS VL: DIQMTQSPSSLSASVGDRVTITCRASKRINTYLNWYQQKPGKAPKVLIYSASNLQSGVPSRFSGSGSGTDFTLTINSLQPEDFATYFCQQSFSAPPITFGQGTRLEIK | 1.16
* mAb25508 (antibody, human IgG4, V domains shown) VH: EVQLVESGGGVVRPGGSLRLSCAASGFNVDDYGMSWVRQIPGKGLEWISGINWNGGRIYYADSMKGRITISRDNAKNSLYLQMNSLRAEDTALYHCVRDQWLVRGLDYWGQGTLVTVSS VL: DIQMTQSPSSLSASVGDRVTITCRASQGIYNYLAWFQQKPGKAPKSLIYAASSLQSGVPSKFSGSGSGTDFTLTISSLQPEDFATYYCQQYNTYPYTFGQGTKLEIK | 1.17

Consider the additional binder presented here.
**Query** Recorded t½ for mAb25479 (antibody, human IgG4, V domains shown) VH: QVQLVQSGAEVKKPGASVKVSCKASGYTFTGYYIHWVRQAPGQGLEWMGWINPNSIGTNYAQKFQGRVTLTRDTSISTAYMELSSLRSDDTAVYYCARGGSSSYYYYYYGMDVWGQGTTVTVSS VL: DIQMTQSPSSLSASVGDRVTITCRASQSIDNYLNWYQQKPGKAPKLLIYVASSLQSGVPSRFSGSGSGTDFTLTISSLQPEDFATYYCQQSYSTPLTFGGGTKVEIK , please?
**Result** 1.18
